# TESTED_TARGET: T1, human CD40L, membrane-bound on cells (human, UniProt P29965 1-261)
# T1 sequence: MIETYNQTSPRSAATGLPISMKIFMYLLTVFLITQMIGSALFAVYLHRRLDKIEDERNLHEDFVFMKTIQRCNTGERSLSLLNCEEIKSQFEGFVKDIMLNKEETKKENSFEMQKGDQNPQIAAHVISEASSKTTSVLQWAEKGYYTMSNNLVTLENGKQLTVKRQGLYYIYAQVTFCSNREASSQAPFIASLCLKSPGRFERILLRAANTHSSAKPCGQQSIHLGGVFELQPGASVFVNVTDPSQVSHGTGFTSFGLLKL
# MEASUREMENT_PROTOCOL: cell-based or functional assay
ASSAY_METRIC: T-B cell MLR EC50

BMS2h-572-619 (other) VH: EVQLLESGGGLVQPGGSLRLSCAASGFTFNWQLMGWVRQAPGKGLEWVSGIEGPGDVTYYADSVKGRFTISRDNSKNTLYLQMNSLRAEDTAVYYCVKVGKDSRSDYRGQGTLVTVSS :: > 7 µM
BMS2h-572-616 (other) VH: EVQLLESGGGLVQPGGSLRLSCAASGFTFNWQLMGWVRQAPGKGLEWVSGIEGPGDVTYYADSVKGRFTISRDNSKNTLYLQMNSLRAEDTAVYYCVKVGKESKSDYRGQGTLVTVSS :: > 7 µM
BMS2h-572-614 (other) VH: EVQLLESGGGLVQPGGSLRLSCAASGFTFNWQLMGWVRQAPGKGLEWVSGIEGPGDVTYYADSVKGRFTISRDNSKNTLYLQMNSLRAEDTAVYYCVKVGKDAKSDYRGQGTLVTVSS :: > 7 µM
BMS2h-572-608 (other) VH: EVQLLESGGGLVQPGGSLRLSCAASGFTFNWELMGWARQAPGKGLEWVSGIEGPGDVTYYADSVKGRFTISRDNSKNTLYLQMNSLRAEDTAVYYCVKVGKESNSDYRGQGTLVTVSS :: > 7 µM
BMS2h-116-1312 (other) VL: DIQMTQSPSSLSASVGDRVTITCRASQPIGPDLLWYQQKPGKAPKLLIYQTSILRSGVPSRFSGSGSETDFTLTISNLQPEDLATYYCQQYWAFPVTFGKGTKVVIKR :: 0.234 µM
BMS2h-572-6 (other) VH: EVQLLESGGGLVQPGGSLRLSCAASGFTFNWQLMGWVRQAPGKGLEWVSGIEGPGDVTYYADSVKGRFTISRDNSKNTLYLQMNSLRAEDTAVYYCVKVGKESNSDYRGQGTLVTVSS :: > 7 µM
BMS2h-572-623 (other) VH: EVQLLESGGGLVQPGGSLRLSCAASGFTFNWQLMGWVRQAPGKGLEWVSGIEGPGDVTYYADSVKGRFTISRDNSKNTLYLQMNSLRAEDTAVYYCVKVGKESSSDYRGQGTLVTVSS :: > 7 µM

Turning now to a further binder:
Entry under test: BMS2h-116-1314 (other) VL: DIQMTQSPSSLSASVGDRVTITCRASQPIGPDLLWYRQKPGKAPKLLIYQTSILRSGVPSRFSGSGSETDFTLTISNLQPEDFATYYCQQYWAFPVTFGQGTKVVIKR . Its T-B cell MLR EC50 was 1.69 µM
